# ASSAY_PROCEDURE: probe aInhba binding on compound microarray – biochemical, small-molecule microarray, 635/667 nm fluorescence, primary screen (AID 1148);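 further: score merges 667nm spot fluorescence with signal-to-noise for antibody binding to printed compounds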
# CONDITION_SET: higher = more signal; small-molecule microarray, probe aInhba, fluorescence unless noted
MEASURED_ENDPOINT: composite z-score

INPUT: Need composite z-score, item COc1cc2c(cc1O)C=[N+](C)CC2
OUTPUT: -0.152

INPUT: Bench note: what composite z-score did OCc1ccc(C2=CC(C3CC3)N(Cc3sc4ccccc4c3Cl)CC2)cc1 (centres undefined) show?
OUTPUT: 0.0028

INPUT: Need composite z-score of CN1CCC(c2ccc(CO)cc2)=CC1c1cccs1 (centres undefined) , thanks.
OUTPUT: -0.154

INPUT: So what's the measured composite z-score for this one? COc1cc2c(cc1O)C(C)N(C)CC2 (centres undefined)
OUTPUT: -0.0468

* * *

Answer each item with its documented composite z-score.
# ASSAY_PROCEDURE: probe aNOTCH2 binding on compound microarray – biochemical, small-molecule microarray, 635/667 nm fluorescence, primary screen (AID 1121);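 further: score merges feature fluorescence read at 667 nm with its signal to noise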
# CONDITION_SET: higher = more signal; small-molecule microarray, probe aNOTCH2, fluorescence unless noted
// response body must contain only the number

INPUT: Name the reported composite z-score value associated with the molecule C=C(CC1(CNP(=O)(c2ccccc2)c2ccccc2)CC1)c1ccccc1
OUTPUT: 0.0312

INPUT: Please look up its composite z-score: OCc1ccc(C2=CC(c3cccs3)N(Cc3cccc(OC(F)(F)F)c3)CC2)cc1 (stereo not drawn)
OUTPUT: -0.115

INPUT: Any idea what its composite z-score is? The molecule is COc1cc2c(cc1O)C=[N+](C)CC2
OUTPUT: -0.133

INPUT: Item COC(=O)NCC=Cc1nc(CCC=CC(=O)O[C@H]2CC3CC(=O)O[C@@H](C=CCC(C)C)C[C@@H]4CC[C@H](C)[C@@H](C[C@@H](OC)C[C@H](C2)O3)O4)co1 has what recorded composite z-score?
OUTPUT: -0.14

INPUT: May I ask what composite z-score has been recorded for C[C@H]1O[C@H]2C3=C(C(=O)[C@@H]4O[C@@H]4[C@@H]3O)[C@@H]1[C@@H]1[C@@H](C)OC=C3[C@@H](O)[C@H]4O[C@H]4C(=O)[C@]312 ?
OUTPUT: -0.125

INPUT: May I ask what composite z-score has been recorded for CCOC(=O)[C@H]1CC=C2C(=O)Oc3ccccc3[C@@H]21 ?
OUTPUT: -0.162

INPUT: State the recorded composite z-score for this entry: CCOC(=O)[C@H]1CC=C2C(=O)Oc3ccc(Br)cc3[C@@H]21
OUTPUT: -0.0896

INPUT: Bench note: what composite z-score did COC(=O)[C@@]1(Cc2ccccc2)[C@H]2c3cc(C(=O)N(C)C)[nH]c3C[C@H]2CN1C(=O)c1ccccc1 show?
OUTPUT: -0.0193

INPUT: Please give the measured composite z-score for this molecule: COC(=O)[C@H]1[C@H](c2ccccc2)C(=O)[C@]2(O)c3ccccc3O[C@@]12c1ccccc1
OUTPUT: -0.199

INPUT: Would you kindly share the measured composite z-score for CN1CCC(c2ccc(CO)cc2)=CC1c1cccs1 (stereo not drawn) ?
OUTPUT: -0.14

INPUT: Dear colleague, I am looking for the recorded composite z-score of the following molecule: O=P(c1ccccc1)(c1ccccc1)N1CC2(CC2)CC(O)(c2ccccc2)C1 (stereo not drawn)
OUTPUT: 0.193

INPUT: Look up composite z-score for this molecule: c1ccc(-c2cc3c(nc2-c2ccccc2)CCNC3)cc1
OUTPUT: -0.131

INPUT: // composite z-score lookup, key: CCCc1cc2c(n1Cc1ccco1)C(C)C1CN(C(=O)c3ccccc3)C(C)(C(=O)OC)C21 (stereo not drawn)
OUTPUT: 0.374

INPUT: Entry COc1cc2c(cc1O)C(C)N(C)CC2 (stereo not drawn) : reported composite z-score = ?
OUTPUT: -0.0877

INPUT: Please look up its composite z-score: CCCC[C@@H]1C[C@H]1[C@@H](NP(=O)(c1ccccc1)c1ccccc1)c1ccc(Cl)cc1
OUTPUT: -0.0684

INPUT: composite z-score for CN1CCc2nc(CO)c(CO)cc2C1 ?
OUTPUT: -0.115

INPUT: Query (molecule): C[C@@H]1OC=C2[C@@H](O)[C@H]3O[C@H]3C(=O)[C@]23[C@H]1[C@H]1C2=C([C@@H](O)[C@H]4O[C@H]4C2=O)[C@@H]3O[C@@H]1C ; field requested: composite z-score
OUTPUT: -0.147

INPUT: Query (molecule): CCCc1cc2c(n1Cc1cccc(Cl)c1)C(C)C1CN(C(=O)c3ccccc3)C(C)(C(=O)OC)C21 (stereo not drawn) ; field requested: composite z-score
OUTPUT: 0.0293

* * *

# TEST_TARGET: Torsin-1A-interacting protein 1 (Homo sapiens)
# ASSAY_PROCEDURE: compound microarray binding of lysate hLAP1 – cell lysate, small-molecule microarray, COS7 lysate, 635/667 nm fluorescence, primary screen (AID 1116)
# CONDITION_SET: 635 nm fluorescence, higher = more signal
MEASURED_ENDPOINT: composite z-score

INPUT: Would you mind telling me what composite z-score value was observed for C=C(CC1(C(C)NP(=O)(c2ccccc2)c2ccccc2)CC1)c1ccccc1 (stereo not drawn) ?
OUTPUT: 1.32

INPUT: Please report the recorded composite z-score for CN1CCc2nc(CO)c(CO)cc2C1 .
OUTPUT: -0.115

INPUT: Please give the measured composite z-score for this compound: CCCc1cc2c(n1Cc1cccc(Cl)c1)C(C)C1CN(C(=O)c3ccccc3)C(C)(C(=O)OC)C21 (stereo not drawn)
OUTPUT: 2.22

* * *

# TEST_TARGET: Dickkopf-related protein 1 (Homo sapiens) (UniProt O94907)
# Sequence (O94907 whole entry, looked up): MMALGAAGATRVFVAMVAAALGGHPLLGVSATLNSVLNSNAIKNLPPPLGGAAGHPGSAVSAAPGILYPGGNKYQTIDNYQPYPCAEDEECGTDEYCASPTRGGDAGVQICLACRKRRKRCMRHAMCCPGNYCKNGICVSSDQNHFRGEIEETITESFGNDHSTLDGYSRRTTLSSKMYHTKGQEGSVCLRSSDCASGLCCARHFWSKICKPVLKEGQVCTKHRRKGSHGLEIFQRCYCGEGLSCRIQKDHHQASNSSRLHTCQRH
# ASSAY_PROCEDURE: small molecules binding DKK1 protein – biochemical, small-molecule microarray, 635 nm fluorescence scan, primary screen (AID 1106);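 further: score merges emission near 667 nm with signal to noise over three replicate slides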
# CONDITION_SET: higher = more signal
MEASURED_ENDPOINT: composite z-score
Note: the reply should be a number with no unit written.

INPUT: State its composite z-score on Dickkopf-related protein 1 (Homo sapiens) (UniProt O94907): COC(=O)C1(C)C=C2C(=C(C)C(=O)C2C)CN1 (configuration not stated)
OUTPUT: -0.706

INPUT: Quick check: composite z-score on Dickkopf-related protein 1 (Homo sapiens) (UniProt O94907), item CCCc1cc2c(n1Cc1cccc(Cl)c1)C(C)C1CN(C(=O)c3ccccc3)C(C)(C(=O)OC)C21 (configuration not stated) ?
OUTPUT: -1.61

INPUT: I'm curious: which composite z-score was measured for C[C@@H]1OC=C2[C@@H](O)[C@H]3O[C@H]3C(=O)[C@]23[C@H]1[C@H]1C2=C([C@@H](O)[C@H]4O[C@H]4C2=O)[C@@H]3O[C@@H]1C tested on Dickkopf-related protein 1 (Homo sapiens) (UniProt O94907)?
OUTPUT: 0.568

INPUT: Query composite z-score on Dickkopf-related protein 1 (Homo sapiens) (UniProt O94907) for CCOC(=O)[C@H]1CC=C2C(=O)Oc3ccccc3[C@@H]21
OUTPUT: -1.06

INPUT: # query: composite z-score | item CCCc1cc2c(n1CCO)C(C)C1CN(C(=O)c3ccccc3)C(C)(C(=O)OC)C21 (configuration not stated) | system: Dickkopf-related protein 1 (Homo sapiens) (UniProt O94907)
OUTPUT: -0.369

INPUT: Reported composite z-score for Dickkopf-related protein 1 (Homo sapiens) (UniProt O94907), given COC(=O)[C@H]1C(=O)c2ccccc2O[C@@](C(=O)OC)(c2ccccc2)[C@@H]1c1ccccc1 ?
OUTPUT: 0.435

INPUT: Query the reported composite z-score for Dickkopf-related protein 1 (Homo sapiens) (UniProt O94907); item: CN1CCc2nc(CO)c(CO)cc2C1
OUTPUT: 0.323

INPUT: Notebook entry, Dickkopf-related protein 1 (Homo sapiens) (UniProt O94907) assay: composite z-score of COC(=O)[C@H]1[C@@H](O)[C@@]2(O)c3c(OC)cc(OC)cc3O[C@@]2(c2ccc(OC)cc2)[C@@H]1c1ccccc1 = ?
OUTPUT: 0.962

INPUT: Could you share what composite z-score was measured for C[C@@H]1Cc2c(cnc3c2CN(C)CC3)CO1 , tested on Dickkopf-related protein 1 (Homo sapiens) (UniProt O94907)?
OUTPUT: 0.662

INPUT: So what composite z-score did CCCc1cc2c(n1Cc1ccco1)C(C)C1CN(C(=O)c3ccccc3)C(C)(C(=O)OC)C21 (configuration not stated) get with Dickkopf-related protein 1 (Homo sapiens) (UniProt O94907)?
OUTPUT: 0.512

INPUT: Under Dickkopf-related protein 1 (Homo sapiens) (UniProt O94907): composite z-score value of COC(=O)[C@H]1[C@H](c2ccccc2)C(=O)[C@]2(O)c3ccccc3O[C@@]12c1ccccc1 ?
OUTPUT: 0.314

INPUT: Please provide the recorded composite z-score for OCc1ccc(C2=CC(c3cccs3)N(Cc3cccc(OC(F)(F)F)c3)CC2)cc1 (configuration not stated) , tested on Dickkopf-related protein 1 (Homo sapiens) (UniProt O94907).
OUTPUT: 0.0824

INPUT: Param readout= composite z-score; system= Dickkopf-related protein 1 (Homo sapiens) (UniProt O94907); entry= CN1CCC(c2ccc(CO)cc2)=CC1C1CC1 (configuration not stated) ; returns value.
OUTPUT: 0.429

INPUT: Observed composite z-score on Dickkopf-related protein 1 (Homo sapiens) (UniProt O94907) for COC(=O)[C@@]1(Cc2ccc(F)cc2)[C@H]2c3cc(C(=O)N(C)C)[nH]c3C[C@H]2CN1C(=O)c1ccccc1 , please.
OUTPUT: -0.503

INPUT: // fetch Dickkopf-related protein 1 (Homo sapiens) (UniProt O94907) composite z-score for C=C(CC1(CNP(=O)(c2ccccc2)c2ccccc2)CC1)c1ccccc1
OUTPUT: -0.542

INPUT: Form: Entry = c1ccc(-c2cc3c(nc2-c2ccccc2)CCNC3)cc1 | System = Dickkopf-related protein 1 (Homo sapiens) (UniProt O94907) | composite z-score = ____
OUTPUT: -0.419

INPUT: Write down the reported composite z-score of COC(=O)NCC=Cc1nc(CCC=CC(=O)O[C@H]2CC3CC(=O)O[C@@H](C=CCC(C)C)C[C@@H]4CC[C@H](C)[C@@H](C[C@@H](OC)C[C@H](C2)O3)O4)co1 , test system: Dickkopf-related protein 1 (Homo sapiens) (UniProt O94907).
OUTPUT: -0.447
